Please go through the items and note down their Percent Effect.
target: Tyrosyl-tRNA synthetase, putative (Trypanosoma cruzi (strain CL Brener)) (UniProt Q4DSP6); test: Trypanosoma cruzi tyrosyl tRNA synthetase (TcYRS) SOP; assay type: functional; set-up: scale not given: direction of the effect not stated beside the values; conditions: 30 µM
Sequence (Q4DSP6 as listed by the source): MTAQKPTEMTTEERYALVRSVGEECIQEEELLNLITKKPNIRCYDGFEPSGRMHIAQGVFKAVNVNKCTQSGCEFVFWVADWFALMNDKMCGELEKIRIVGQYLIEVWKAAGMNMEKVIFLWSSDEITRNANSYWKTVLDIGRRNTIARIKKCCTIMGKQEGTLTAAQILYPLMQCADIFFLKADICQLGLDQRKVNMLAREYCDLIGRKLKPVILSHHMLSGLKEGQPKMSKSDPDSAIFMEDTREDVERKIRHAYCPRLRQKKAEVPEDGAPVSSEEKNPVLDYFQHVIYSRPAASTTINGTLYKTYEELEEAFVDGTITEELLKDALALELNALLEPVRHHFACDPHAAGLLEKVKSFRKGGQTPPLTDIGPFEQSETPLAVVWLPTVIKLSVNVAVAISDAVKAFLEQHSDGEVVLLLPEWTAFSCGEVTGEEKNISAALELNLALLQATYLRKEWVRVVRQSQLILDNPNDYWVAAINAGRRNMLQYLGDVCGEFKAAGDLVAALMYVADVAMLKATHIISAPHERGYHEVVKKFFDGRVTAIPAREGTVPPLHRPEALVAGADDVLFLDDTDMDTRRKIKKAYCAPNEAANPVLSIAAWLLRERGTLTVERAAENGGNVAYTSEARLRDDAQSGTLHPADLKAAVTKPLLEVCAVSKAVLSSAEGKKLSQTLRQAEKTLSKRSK
Hi, when you answer, please include the unit after the number. Thanks!

Would you please look over these solved cases?
Molecule | Experimental value
CCN1CCN(c2ccc(F)cc2C(C)NCc2ccncc2)CC1 (centres undefined) | 6.17%
O=S1(=O)CCN(Cc2cccnc2)[C@H]2CCN(c3ncccn3)CC[C@H]21 | -1.22%
COC[C@@H]1CC[C@H]2[C@H](CCN2C(=O)c2ccncc2F)O1 | 13.6%

Could you now look at the following molecule, please?
**Q:** Report the value of Percent Effect obtained on Tyrosyl-tRNA synthetase, putative (Trypanosoma cruzi (strain CL Brener)) (UniProt Q4DSP6) for `CCOc1ccccc1C(=O)NS(=O)(=O)c1ccc2c(c1)OCCCO2` .
**A:** -21%

Entry source: ChEMBL document CHEMBL3988442
